Assay: cell viability loss from selected hits – cytotoxicity control for SV40 T antigen inhibitor project, dose response (AID 2102);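 further: cells exposed to compounds for 72 hours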
Settings: Host cell viability cytotoxicity counter-screen; series mostly up to 50 µM
Out of some 1,100 compounds screened, about 210 (19%) were called active. The list is a sample of the results. Entries with a potency or affinity are not part of this list.
measurement-label: outcome

>>> test_result("Cc1cc2c(n1-c1ccc(C(=O)O)cc1)CCCCC2")
"inactive"
>>> test_result("CCOc1cc(/C=C2\\N=C3CCCCCN3C2=O)ccc1O")
"inactive"
>>> test_result("Cc1ccc(NC(=O)CN2C(=O)N/C(=C/c3cccn3-c3ccc(C(=O)O)cc3)C2=O)cc1")
"inactive"
>>> test_result("CCN(CC)c1ccc(NC(=O)COC(=O)c2ccc3ccccc3n2)cc1")
"inactive"
>>> test_result("Oc1ccc(-c2cn3ccccc3n2)cc1O")
"inactive"
>>> test_result("COc1cc(/C=C2\\S/C(=N/S(=O)(=O)c3ccc(C)cc3)NC2=O)c([N+](=O)[O-])cc1OC")
"inactive"
>>> test_result("O=c1oc2cc(O)ccc2c2ccccc12")
"inactive"
>>> test_result("Nc1nc[nH]c(=O)c1N=Cc1ccccc1")
"inactive"
>>> test_result("COc1cc(Cn2nnc3ccccc32)ccc1O")
"inactive"
>>> test_result("O=C(CC1SC(=O)N(c2ccccc2)C1=O)Nc1cccc2ccccc12 (centres undefined)")
"inactive"
>>> test_result("COc1cc(/C=N/NC(=O)c2cccs2)ccc1O")
"inactive"
>>> test_result("CN(C)c1ccc(N2C(=O)CC(Nc3ccc(N4CCOCC4)cc3)C2=O)cc1 (centres undefined)")
"inactive"
>>> test_result("CC(=O)Nc1ccc(S(=O)(=O)Nc2nc3ccccc3nc2Nc2ccc(O)cc2)cc1")
"inactive"
>>> test_result("Oc1ccc(-c2nc3ccccn3c2NCc2ccco2)cc1")
"inactive"
>>> test_result("O=C(O)C1Nc2c(O)cc(Cl)c([N+](=O)[O-])c2C2C=CCC12 (centres undefined)")
"inactive"
>>> test_result("CCOc1ccccc1NC(=S)N1CCN(c2ccc(O)cc2)CC1")
"inactive"
>>> test_result("CN(C)c1ccc(NC(N)=S)cc1")
"inactive"
>>> test_result("COc1cc(/C=C2\\C(=N)N3N=C(S(C)(=O)=O)SC3=NC2=O)ccc1OS(=O)(=O)c1ccc(C)cc1")
"inactive"
>>> test_result("O=C(CSc1nc2ccccc2c(=O)[nH]1)c1ccc(O)c(O)c1")
"inactive"
>>> test_result("O=C(O)/C=C/c1ccc(O)cc1")
"inactive"
>>> test_result("O=Cc1sc(=O)n(Cc2cccc(C(=O)O)c2)c1Cl")
"inactive"
>>> test_result("Oc1ccc2c(c1)oc1cc(O)ccc12")
"inactive"
>>> test_result("COc1cc(/C(C)=N/NC(=O)CSc2nc3ccccc3[nH]2)ccc1O")
"inactive"
>>> test_result("O=S(=O)(Nc1ccc(O)cc1)c1cccc2cccnc12")
"inactive"

====

Assay: cell viability loss from selected hits – cytotoxicity control for SV40 T antigen inhibitor project, dose response (AID 2102);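 further: cells exposed to compounds for 72 hours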
Details: Host cell viability cytotoxicity counter-screen; series mostly up to 50 µM
Screen size: about 1,100 compounds; about 210 (19%) were called active. Only a sample is shown. Results with a measured potency or affinity are listed apart.
measurement-label: outcome

>>> test_result("Cc1cc(C)n(CCc2nc(-c3ccco3)cs2)n1")
"inactive"
>>> test_result("CN(C)c1ccc(NC(=S)NCC2CCCO2)cc1 (stereo not drawn)")
"inactive"
>>> test_result("Nc1ccc(-c2nc3c(Cl)c(N)ccc3[nH]2)cc1")
"inactive"
>>> test_result("CC(C)c1ccc(S(=O)(=O)N2CCN(CCC(=O)Nc3ccc(N(C)C)cc3)CC2)cc1")
"inactive"
>>> test_result("Cc1nnc(N/N=C/c2c(O)n(-c3cccc(C(F)(F)F)c3)c(=O)c3ccccc23)[nH]c1=O")
"inactive"
>>> test_result("O=C(Nc1ccc(O)cc1)C1CC=CCC1 (stereo not drawn)")
"inactive"
>>> test_result("O=C(O)[C@H]1CCCC[C@H]1C(=O)Nc1ccc(Nc2ccccc2)cc1")
"inactive"
>>> test_result("Nc1cc(C(=O)O)c(N)c2c1C(=O)c1ccccc1C2=O")
"inactive"
>>> test_result("CCSC1(SCC)N=C(N)C2(C#N)C(c3ccc(OC)c(OC)c3OC)C12C#N (stereo not drawn)")
"inactive"
>>> test_result("CC(C)c1ccc(C2CC(=O)N3CN(C)CSC3=C2C#N)cc1 (stereo not drawn)")
"inactive"
>>> test_result("Cc1ccc(S(=O)(=O)Nc2nc(C)cc(N/N=C/c3ccc(O)cc3)n2)cc1")
"inactive"
>>> test_result("CCOC(=O)C1(C)C=C(Nc2ccc(O)cc2)C(=O)N1c1ccc(O)cc1 (stereo not drawn)")
"inactive"
>>> test_result("O=S(=O)(c1ccc(NC(=S)N/N=C/c2ccc(O)c(O)c2)cc1)N1CCOCC1")
"inactive"
>>> test_result("CN(C)c1ccc(NC(=O)CN2CCN(CC(=O)Nc3ccc(F)cc3)CC2)cc1")
"inactive"
>>> test_result("CCN(CC)c1ccc(NC(=O)c2ccccc2F)cc1")
"inactive"
>>> test_result("COc1ccc(CC(=O)N/N=C(\\C)CC(=O)Nc2ccc(N(C)C)cc2)cc1OC")
"inactive"
>>> test_result("O=C(Cn1c(=O)oc2ccccc21)Nc1n[nH]c(=S)s1")
"inactive"
>>> test_result("CC(=O)c1cccc(S(=O)(=O)N2CCCC(c3nc(-c4ccc(C)o4)no3)C2)c1 (stereo not drawn)")
"inactive"
>>> test_result("CCOc1cc(NC2CS(=O)(=O)CC2O)c(OCC)cc1NC(=O)c1ccccc1 (stereo not drawn)")
"inactive"
>>> test_result("CCOc1cc(/C=C2/N=C(C)C(C(=O)OC)=C2O)ccc1O")
"inactive"
>>> test_result("COc1cc([N+](=O)[O-])ccc1NC(=O)Oc1ccc(NC(C)=O)cc1")
"inactive"
>>> test_result("O=c1ccc2cc(O)c(O)cc2o1")
"inactive"
>>> test_result("Cn1c(=O)oc2cc(S(=O)(=O)Nc3ccc(O)cc3)ccc21")
"inactive"

====

Assay: cell viability loss from selected hits – cytotoxicity control for SV40 T antigen inhibitor project, dose response (AID 2102);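 further: cells exposed to compounds for 72 hours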
Conditions: Host cell viability cytotoxicity counter-screen; series mostly up to 50 µM
The whole screen tested about 1,100 compounds, of which about 210 (19%) were called active. Only a sample is shown. Results with a measured potency or affinity are listed apart.
measurement-label: outcome

>>> test_result("COc1cc(/C=C2\\N=C3CCCCCN3C2=O)ccc1O")
"inactive"
>>> test_result("COc1ccc(-n2c(=O)c3c4c(sc3n3c(=S)[nH]nc23)CCC4)cc1")
"inactive"
>>> test_result("O=c1c2c3c(sc2n2c(=S)[nH]nc2n1-c1ccccc1)CCC3")
"inactive"
>>> test_result("CC(=O)NCCc1c[nH]c2ccc(O)cc12")
"inactive"
>>> test_result("S=c1[nH]nc(-c2n[nH]c3c2CCC3)n1/N=C/C=C/c1ccco1")
"inactive"
>>> test_result("Oc1cnn(-c2ccccc2)c1")
"inactive"
>>> test_result("Nc1nc(-c2ccco2)cs1")
"inactive"
>>> test_result("CCOc1cc(/C=C2\\NC(=S)N(c3c(C)n(C)n(-c4ccccc4)c3=O)C2=O)ccc1O")
"inactive"
>>> test_result("CCOc1cc(/C=N/Nc2nc(-c3cccs3)c(NC(C)=O)s2)ccc1O")
"inactive"
>>> test_result("CC1=C(C)CS(=O)N(S(=O)(=O)c2ccc(Cl)cc2)C1 (configuration not stated)")
"inactive"
>>> test_result("Cc1nc2ccc(N=NN(C)C)cc2[nH]1")
"inactive"
>>> test_result("CC(=O)CC1OC(=O)C(Br)=C1NCc1ccccc1 (configuration not stated)")
"inactive"
